Target: T1, Kringle (Kg) (human, UniProt Q01973)
T1 construct: also called ROR1 Kringle domain alone, on transduced SUP-T1 cells
T1 sequence (Q01973 312-391 limits assumed): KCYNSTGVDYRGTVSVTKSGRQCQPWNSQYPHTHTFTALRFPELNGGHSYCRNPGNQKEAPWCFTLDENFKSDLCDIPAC
Experiment: flow cytometry, transduced SUP-T1 cells, anti-human Fc-Dylight647
quantity.measured: binding result

Clone O chimeric ROR1 antibody (antibody, V domains shown) VH: QVRLLQSGAALVKPGASVKMSCKASGYTFTDYWMSWVKQSHGKSLEWIGEIYPNSGATNFNEKFKDKATLTVDRSTSTAYMELSRLTSEDSAIYYCARGFPNNYLSWFAYWGQGTLVTVSS VL: DIVLTQSPALAVSLEQRVTIACKTSQNVDNHGISYMHWYQQKSGQEPKLLIYEGSNLAVGIPARFSGSGSGTDFTLTIDPVEADDIETYYCQQSKDDPRTFGGGTKLELK = no binding
Clone Mu chimeric ROR1 antibody (antibody, V domains shown) VH: QVQLQQSGAELVKPGSSVRISCKASGYTITSYDMHWIKQQPGNGLEGIGWIHPGNGKIKYNQKFNGKATLTVDKSSSTAYMQLSSLTSEDSAVYFCARGTTRVFPWFAYWGQGTLVTVSS VL: QFTLTQPKSVSGSLRSTITIPCERSSGDIGDNYVSWYQQHLGRPPINVIYADDQRPSEVSDRFSGSIDSSSNSASLTITNLQMDDEADYFCQSFDSNFDIPVFGGGTKLTVL = no binding
